target: Neuronal acetylcholine receptor subunit alpha-7 (Bos taurus); assay: Displacement of [125I]alpha-bungarotoxin from bovine alpha7 nAChR expressed in HEK293 cells at 10 uM; type: cell-based
quantityMeasured: Activity (%)
Number only, in %; omit the unit.

Notebook: CC1CC(=O)N(c2ccccc2C(=O)OC[C@@H]2C[C@H](CCCCCO[Si](C)(C)C(C)(C)C)CN(CCCc3ccccc3)C2)C1=O (stereo partly specified) , Activity read as 88.8

Notebook: CCCCCC[C@H]1C[C@@H](COC(=O)c2ccccc2N2C(=O)CC(C)C2=O)CN(CCCc2ccccc2)C1 (stereo partly specified) , Activity read as 92.2

Notebook: CC1CC(=O)N(c2ccccc2C(=O)OC[C@@H]2C[C@H](c3ccccc3)CN(CCCc3ccccc3)C2)C1=O (stereo partly specified) , Activity read as 94.3

Notebook: CC1CC(=O)N(c2ccccc2C(=O)OC[C@@H]2C[C@H](CC3CCCCC3)CN(CCCc3ccccc3)C2)C1=O (stereo partly specified) , Activity read as 92.6

Notebook: CC1CC(=O)N(c2ccccc2C(=O)OC[C@@H]2C[C@H](CCc3ccccc3)CN(CCCc3ccccc3)C2)C1=O (stereo partly specified) , Activity read as 98.8

Notebook: CC1CC(=O)N(c2ccccc2C(=O)OC[C@@H]2C[C@H](C3CCCCC3)CN(CCCc3ccccc3)C2)C1=O (stereo partly specified) , Activity read as 103
